# Test system: UO-31 renal
# METHOD: NCI-60 one-dose screen, 48 h (100 = growth as untreated, 0 = no growth, -100 = all killed)
# ASSAY CONTEXT: 10 µM
This is part of a sample that, as a whole, favours compounds with a hit. Of some 83,000 tested, about 20% had one in any assay.
OUTCOME MEASURE: growth (%)
Reply numerically in %, unit not repeated.

Some compounds with recorded growth:
Nc1ncnc2c1nc(N)n2C1OC(CO)C(O)C1O (stereo not drawn) : -53.9
C#CC(C)(O)c1ccc(Cl)cc1 (stereo not drawn) : 99.4

Then this compound:
Quick one: growth of "CCOC(=O)c1ccc(Nc2sc(C(=O)c3cccc([N+](=O)[O-])c3)c(N)c2C#N)cc1" ?
31.1

The origin of these recorded values is PubChem BioAssay (NCI).
